target: human p300 CH1 domain (p300-CH1) (Homo sapiens, UniProt Q09472); construct: human p300 CH1 domain (amino acid residues 323-423); GST (N, cleaved yes); made in house; host or cells: E. coli BL21(DE3); experiment: Tryptophan fluorescence binding assay for p300-CH1; conditions: binding affinity for p300-CH1, intrinsic tryptophan fluorescence assay (Table 8); read-out: Kd
Sequence (Q09472 323-423): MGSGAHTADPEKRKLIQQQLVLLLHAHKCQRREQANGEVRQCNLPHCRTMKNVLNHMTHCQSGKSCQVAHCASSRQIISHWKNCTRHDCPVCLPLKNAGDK
Readout Name: pKd
One number for each entry, as −log10 of the molar value.

Past entries and their recorded results:
CCCC[C@@H](C(=O)N1CCN([C@@H](CCC(N)=O)C(N)=O)C(=O)[C@@H]1C)N1CCN[C@@H](CC(C)C)C1=O [OHM 23, L(Nle)AQ] | 7.52
CC(C)C[C@@H]1NCCN([C@@H](CC(C)C)C(=O)N2CCN([C@@H](CCC(N)=O)C(N)=O)C(=O)[C@@H]2C)C1=O [OHM 21, LLAQ-NH2] | 6.28
CC(C)CC[C@@H]1NCCN([C@@H](CCC(C)C)C(=O)N2CCN([C@@H](CCC(N)=O)C(N)=O)C(=O)[C@@H]2C)C1=O [OHM 25, (Hle)(Hle)AQ] | 6.80

Would you kindly look at the next entry?
Prompt line: So what does the record say about pKd for CC(C)C[C@@H]1NCCN([C@@H](CC(C)C)C(=O)N2CCN([C@@H](C)C(N)=O)C(=O)[C@@H]2C)C1=O [OHM 26] ?
Response line: 6.21
